Molecular target: Phosphatidylinositol 4,5-bisphosphate 3-kinase catalytic subunit alpha isoform (Homo sapiens, UniProt P42336)
Sequence (P42336 whole entry, canonical isoform): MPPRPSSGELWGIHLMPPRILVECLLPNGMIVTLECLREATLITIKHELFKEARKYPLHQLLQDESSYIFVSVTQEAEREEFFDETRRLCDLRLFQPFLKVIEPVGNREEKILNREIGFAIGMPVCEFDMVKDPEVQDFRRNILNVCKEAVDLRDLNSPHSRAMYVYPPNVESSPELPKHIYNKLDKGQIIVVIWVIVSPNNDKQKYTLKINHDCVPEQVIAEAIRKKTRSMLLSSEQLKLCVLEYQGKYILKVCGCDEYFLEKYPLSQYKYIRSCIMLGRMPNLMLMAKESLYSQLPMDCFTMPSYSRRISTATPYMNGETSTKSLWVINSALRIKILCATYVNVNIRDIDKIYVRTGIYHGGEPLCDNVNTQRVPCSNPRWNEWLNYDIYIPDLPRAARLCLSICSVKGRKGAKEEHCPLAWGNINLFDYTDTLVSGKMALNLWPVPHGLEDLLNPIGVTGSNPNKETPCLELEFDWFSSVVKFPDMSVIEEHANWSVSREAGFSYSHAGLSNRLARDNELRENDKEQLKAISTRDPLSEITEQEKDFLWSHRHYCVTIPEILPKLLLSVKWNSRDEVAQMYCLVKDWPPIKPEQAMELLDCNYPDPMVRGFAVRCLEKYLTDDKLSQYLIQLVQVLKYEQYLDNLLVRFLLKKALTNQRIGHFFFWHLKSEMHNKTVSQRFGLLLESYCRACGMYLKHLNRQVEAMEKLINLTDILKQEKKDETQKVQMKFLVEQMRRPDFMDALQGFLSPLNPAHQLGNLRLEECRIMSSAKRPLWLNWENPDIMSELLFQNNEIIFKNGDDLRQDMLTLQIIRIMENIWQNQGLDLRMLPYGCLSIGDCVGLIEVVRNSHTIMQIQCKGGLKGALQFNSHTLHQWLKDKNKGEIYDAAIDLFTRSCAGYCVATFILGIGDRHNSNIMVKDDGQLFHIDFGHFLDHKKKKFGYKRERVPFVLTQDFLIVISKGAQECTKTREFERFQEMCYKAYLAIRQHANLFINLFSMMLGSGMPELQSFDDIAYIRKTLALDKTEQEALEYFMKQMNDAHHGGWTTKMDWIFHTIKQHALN
Experiment: Inhibition of PI3Kalpha assessed as change in pIC50 by kinobeads assay
readout.label: IC50

Record summary for "CC(C)(C)NS(=O)(=O)c1cncc(-c2cc(F)c3nc(N)nn3c2)c1" : reported IC50 = > 10 µM

====

readout.label: IC50

Observed IC50, Cyclin-dependent kinase 9 (Homo sapiens), "CC(C)(C)NS(=O)(=O)c1cncc(-c2ccn3nc(N)nc3c2)c1" : > 10 µM

====

readout.label: IC50

Observed IC50, Serine/threonine-protein kinase 16 (Homo sapiens, UniProt O75716), "CC(C)(C)NS(=O)(=O)c1cncc(-c2ccn3nc(N)nc3c2)c1" : > 10 µM

====

Target: Phosphatidylinositol 4,5-bisphosphate 3-kinase catalytic subunit gamma isoform (Homo sapiens, UniProt P48736)
Sequence (P48736 whole entry, canonical isoform): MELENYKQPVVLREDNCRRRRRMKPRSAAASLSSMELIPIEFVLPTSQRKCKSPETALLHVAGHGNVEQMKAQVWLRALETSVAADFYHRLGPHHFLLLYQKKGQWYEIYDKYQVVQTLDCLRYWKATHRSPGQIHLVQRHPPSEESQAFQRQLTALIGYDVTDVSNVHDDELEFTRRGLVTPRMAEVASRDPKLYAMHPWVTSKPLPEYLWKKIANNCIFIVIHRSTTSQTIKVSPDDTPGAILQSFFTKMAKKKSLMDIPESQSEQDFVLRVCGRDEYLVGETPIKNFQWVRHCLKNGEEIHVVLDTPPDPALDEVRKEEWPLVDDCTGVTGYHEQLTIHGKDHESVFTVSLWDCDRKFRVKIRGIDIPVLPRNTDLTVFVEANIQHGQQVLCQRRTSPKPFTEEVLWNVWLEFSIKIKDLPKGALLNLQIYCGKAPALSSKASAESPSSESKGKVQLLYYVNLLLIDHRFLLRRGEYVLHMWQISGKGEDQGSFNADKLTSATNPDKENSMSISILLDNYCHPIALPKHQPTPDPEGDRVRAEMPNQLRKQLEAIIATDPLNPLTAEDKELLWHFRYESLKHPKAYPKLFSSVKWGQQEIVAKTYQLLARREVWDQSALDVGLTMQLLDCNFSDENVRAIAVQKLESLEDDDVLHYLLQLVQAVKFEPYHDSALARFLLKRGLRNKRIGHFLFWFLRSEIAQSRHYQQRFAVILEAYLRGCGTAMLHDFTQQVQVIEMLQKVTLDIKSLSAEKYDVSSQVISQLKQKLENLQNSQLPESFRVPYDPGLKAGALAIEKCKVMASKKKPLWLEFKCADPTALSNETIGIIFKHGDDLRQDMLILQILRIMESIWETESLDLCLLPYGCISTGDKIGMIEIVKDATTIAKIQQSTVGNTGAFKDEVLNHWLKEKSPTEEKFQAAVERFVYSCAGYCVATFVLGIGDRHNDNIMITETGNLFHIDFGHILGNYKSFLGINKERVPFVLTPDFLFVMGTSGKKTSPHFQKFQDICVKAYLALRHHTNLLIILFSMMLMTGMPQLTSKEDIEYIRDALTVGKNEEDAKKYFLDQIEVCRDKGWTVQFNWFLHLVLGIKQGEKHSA
Assay: Inhibition of PI3Kgamma by kinobeads assay
So I've got a bunch of molecules here, and I need their IC50 values.
The reply should be a number in nM, with the unit left off.

Record summary for "CNS(=O)(=O)c1cncc(-c2ccn3nc(N)nc3c2)c1" : reported IC50 = 25.1

Record summary for "Nc1nc2cc(-c3cncc(S(=O)(=O)NCC(F)(F)F)c3)ccn2n1" : reported IC50 = 20

Record summary for "CC(C)NS(=O)(=O)c1cncc(-c2ccn3nc(N)nc3c2)c1" : reported IC50 = 25.1

====

Assay: AUC in rat […] at 5 mg/kg, po; 1 mg/kg, iv
Assay type: ADME, organism-based
readout.label: AUC (µM·h)
The reply should be a number in µM·h, with the unit left off.

Record summary for "CC(C)(C)NS(=O)(=O)c1cncc(-c2ccn3nc(N)nc3c2)c1" : reported AUC = 15.3

====

Target: Epidermal growth factor receptor (Homo sapiens, UniProt P00533)
pIC50: −log10 of the molar value.
readout.label: pIC50

Record summary for "CC(C)(C)NS(=O)(=O)c1cncc(-c2ccn3nc(N)nc3c2)c1" : reported pIC50 = < 5.00

====

System: Hepatocyte
Assay: Metabolic stability in mouse hepatocytes measured per gram of tissue
Assay type: ADME, cell-based
readout.label: CLint

Record summary for "CC(C)(C)NS(=O)(=O)c1cncc(-c2cc(F)n3nc(N)nc3c2)c1" : reported CLint = 36.1 mL/min/g

====

Experiment: Volume of distribution at steady state […] at 5 mg/kg, po; 1 mg/kg, iv
Format: ADME, organism-based
Settings: read-out: Vdss
readout.label: Vd (L/kg)
The reply should be a number in L/kg, with the unit left off.

Record summary for "CC(C)(C)NS(=O)(=O)c1cncc(-c2ccn3nc(N)nc3c2)c1" : reported Vd = 1.3

====

Target: Casein kinase II subunit alpha' (Homo sapiens, UniProt P19784)
Sequence (P19784 whole entry): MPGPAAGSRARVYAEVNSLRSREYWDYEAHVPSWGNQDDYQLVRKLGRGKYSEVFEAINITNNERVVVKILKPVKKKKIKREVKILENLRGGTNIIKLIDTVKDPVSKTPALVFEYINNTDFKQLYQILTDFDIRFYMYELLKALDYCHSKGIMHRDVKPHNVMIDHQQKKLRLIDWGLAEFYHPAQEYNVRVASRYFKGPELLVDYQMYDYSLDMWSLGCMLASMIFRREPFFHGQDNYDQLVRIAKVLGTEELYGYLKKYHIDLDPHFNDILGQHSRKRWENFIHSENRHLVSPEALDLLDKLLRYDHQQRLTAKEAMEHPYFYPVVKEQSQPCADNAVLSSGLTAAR
Experiment: Inhibition of CK2a2
pIC50: −log10 of the molar value.
readout.label: pIC50

Observed pIC50, Casein kinase II subunit alpha' (Homo sapiens, UniProt P19784), "CC(C)(C)NS(=O)(=O)c1cncc(-c2ccn3nc(N)nc3c2)c1" : < 5.00

====

Target: Calcium/calmodulin-dependent protein kinase type II subunit gamma (Homo sapiens)
Sequence (Q13555 whole entry): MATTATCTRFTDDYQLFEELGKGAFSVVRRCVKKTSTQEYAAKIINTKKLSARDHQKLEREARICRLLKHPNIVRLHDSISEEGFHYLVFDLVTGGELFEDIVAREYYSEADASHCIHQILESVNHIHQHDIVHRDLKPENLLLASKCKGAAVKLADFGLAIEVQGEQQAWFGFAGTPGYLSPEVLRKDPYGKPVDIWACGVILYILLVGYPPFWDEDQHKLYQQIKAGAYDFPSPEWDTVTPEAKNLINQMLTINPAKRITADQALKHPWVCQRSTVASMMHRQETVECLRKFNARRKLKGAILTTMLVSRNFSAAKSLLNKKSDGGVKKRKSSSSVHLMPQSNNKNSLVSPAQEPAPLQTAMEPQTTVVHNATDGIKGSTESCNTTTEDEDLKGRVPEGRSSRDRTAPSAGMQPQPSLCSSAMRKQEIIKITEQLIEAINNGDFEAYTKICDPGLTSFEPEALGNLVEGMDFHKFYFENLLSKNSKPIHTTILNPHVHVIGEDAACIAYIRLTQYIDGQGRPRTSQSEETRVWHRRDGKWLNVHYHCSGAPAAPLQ
Assay: Inhibition of CAMK2G
pIC50: −log10 of the molar value.
readout.label: pIC50

Record summary for "CC(C)(C)NS(=O)(=O)c1cncc(-c2ccn3nc(N)nc3c2)c1" : reported pIC50 = < 5.00

====

Molecular target: Non-receptor tyrosine-protein kinase TNK1 (Homo sapiens)
readout.label: IC50

Record summary for "CC(C)(C)NS(=O)(=O)c1cncc(-c2ccn3nc(N)nc3c2)c1" : reported IC50 = > 10 µM

====

Target: Calcium/calmodulin-dependent protein kinase type II subunit delta (Homo sapiens)
Sequence (Q13557 whole entry): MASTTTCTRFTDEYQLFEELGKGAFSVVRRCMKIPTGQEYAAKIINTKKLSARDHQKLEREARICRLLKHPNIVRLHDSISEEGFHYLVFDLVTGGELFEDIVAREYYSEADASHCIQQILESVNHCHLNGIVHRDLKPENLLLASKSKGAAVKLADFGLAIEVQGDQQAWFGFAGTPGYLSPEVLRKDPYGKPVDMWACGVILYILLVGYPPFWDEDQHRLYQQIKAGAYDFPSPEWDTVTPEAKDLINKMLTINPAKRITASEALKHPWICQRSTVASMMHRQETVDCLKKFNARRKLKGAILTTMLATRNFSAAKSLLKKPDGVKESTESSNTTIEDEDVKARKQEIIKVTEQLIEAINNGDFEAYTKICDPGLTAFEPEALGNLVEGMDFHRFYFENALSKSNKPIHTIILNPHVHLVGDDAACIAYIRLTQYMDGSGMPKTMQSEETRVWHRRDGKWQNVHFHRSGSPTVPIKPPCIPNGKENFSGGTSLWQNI
Assay: Inhibition of CAMK2D
readout.label: IC50

Record summary for "CC(C)(C)NS(=O)(=O)c1cncc(-c2ccn3nc(N)nc3c2)c1" : reported IC50 = > 10 µM

====

Experiment: Oral bioavailability in Wistar rat at 5 mg/kg; 1 mg/kg, iv
Conditions: in vivo
readout.label: bioavailability (%)
The reply should be a number in %, with the unit left off.

Record summary for "CC(C)(C)NS(=O)(=O)c1cncc(-c2ccn3nc(N)nc3c2)c1" : reported bioavailability = 81

====

Target: Calcium/calmodulin-dependent protein kinase kinase 2 (Homo sapiens)
Sequence (Q96RR4 whole entry): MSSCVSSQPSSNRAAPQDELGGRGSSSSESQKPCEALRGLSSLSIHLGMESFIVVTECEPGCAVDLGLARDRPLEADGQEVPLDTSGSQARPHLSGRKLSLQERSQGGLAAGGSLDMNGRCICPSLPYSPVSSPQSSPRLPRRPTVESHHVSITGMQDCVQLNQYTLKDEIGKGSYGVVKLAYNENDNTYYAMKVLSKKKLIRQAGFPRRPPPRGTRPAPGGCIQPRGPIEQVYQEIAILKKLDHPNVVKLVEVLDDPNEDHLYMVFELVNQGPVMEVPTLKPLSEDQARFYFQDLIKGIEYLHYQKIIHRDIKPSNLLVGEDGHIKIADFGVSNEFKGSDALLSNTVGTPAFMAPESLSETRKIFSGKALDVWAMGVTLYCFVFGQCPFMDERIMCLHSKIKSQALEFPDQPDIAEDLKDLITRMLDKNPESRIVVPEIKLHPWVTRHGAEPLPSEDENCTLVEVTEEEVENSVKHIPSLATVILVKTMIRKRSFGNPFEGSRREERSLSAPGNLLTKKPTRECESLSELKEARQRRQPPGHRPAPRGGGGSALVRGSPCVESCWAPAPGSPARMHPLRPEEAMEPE
Experiment: Inhibition of CAMKK2
pIC50: −log10 of the molar value.
readout.label: pIC50

Observed pIC50, Calcium/calmodulin-dependent protein kinase kinase 2 (Homo sapiens), "CC(C)(C)NS(=O)(=O)c1cncc(-c2ccn3nc(N)nc3c2)c1" : < 5.00

====

Biological target: UniProtKB P41240
Sequence (P41240 whole entry): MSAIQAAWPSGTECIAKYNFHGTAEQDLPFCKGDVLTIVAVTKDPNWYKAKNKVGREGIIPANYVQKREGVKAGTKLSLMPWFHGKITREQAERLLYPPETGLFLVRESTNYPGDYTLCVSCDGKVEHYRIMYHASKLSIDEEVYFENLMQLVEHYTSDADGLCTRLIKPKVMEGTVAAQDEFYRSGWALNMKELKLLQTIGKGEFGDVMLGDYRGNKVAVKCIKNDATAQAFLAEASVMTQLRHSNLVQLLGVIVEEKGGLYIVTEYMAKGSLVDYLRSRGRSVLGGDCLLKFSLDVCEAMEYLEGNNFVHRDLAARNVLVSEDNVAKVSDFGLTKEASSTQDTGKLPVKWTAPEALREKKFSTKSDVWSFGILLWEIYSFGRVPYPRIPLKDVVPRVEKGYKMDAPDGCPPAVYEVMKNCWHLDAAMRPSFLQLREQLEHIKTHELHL
readout.label: IC50

Record summary for "CC(C)(C)NS(=O)(=O)c1cncc(-c2ccn3nc(N)nc3c2)c1" : reported IC50 = > 10 µM

====

Biological target: Cyclin-dependent kinase 1 (Homo sapiens, UniProt P06493)
Sequence (P06493 whole entry): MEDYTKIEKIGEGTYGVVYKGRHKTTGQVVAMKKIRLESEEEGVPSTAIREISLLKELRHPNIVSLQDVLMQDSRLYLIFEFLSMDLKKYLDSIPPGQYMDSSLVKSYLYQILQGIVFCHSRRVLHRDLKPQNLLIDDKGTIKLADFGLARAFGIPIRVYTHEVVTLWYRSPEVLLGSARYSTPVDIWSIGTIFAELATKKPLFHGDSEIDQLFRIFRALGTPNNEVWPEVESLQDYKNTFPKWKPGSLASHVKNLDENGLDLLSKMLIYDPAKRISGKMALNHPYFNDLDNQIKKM
pIC50: −log10 of the molar value.
readout.label: pIC50

Record summary for "CC(C)(C)NS(=O)(=O)c1cncc(-c2ccn3nc(N)nc3c2)c1" : reported pIC50 = < 5.00
